test: qHTS assay to identify small molecule antagonists of the androgen receptor (AR) signaling pathway using the MDA cell line in the presence of 0.5 nM R1881 - cell viability counter screen (AID 1259242); conditions: MDA-kb2 viability, CellTiter-Fluor protease fluorescence, 16 h; series mostly up to 92.4 µM; further: nearly all actives have a fitted effect of over 45% in size
Inconclusive results are not listed. Calls of active or inactive are those of the source. The call rests on the fitted dose curve; in most records, active means well fitted cell-killing curve with a large enough effect in the repeat runs; inconclusive means weak or mixed curves, or effect the other way; inactive means flat fitted curve, though single readings scatter.
Pick one: active, inactive

Q. Kindly provide the recorded test outcome for the following compound: CC1=CC[C@@H](C(C)(C)O)CC1
A. inactive

Q. Then what about the compound CCCCCCCC/C=C\CCCCCCCC(=O)N(CCO)CCO ?
A. inactive

Q. Same question for CC1CCC(C(C)(C)O)CC1 (stereo not given) please.
A. inactive

Q. What would you report for COCCC(=O)OC ?
A. inactive

Q. Param item: O=C1CCC/C=C\CCCCCCCCCC1
A. inactive

Q. Moving on to the next compound: Cc1cc(Br)ccc1NC(=O)CCl
A. active

Q. One more compound: Brc1cc(Br)cc(Br)c1
A. inactive

Q. Now this one: CCOc1ccc([N+](=O)[O-])cc1
A. inactive

Q. Same for Cc1cccc2c1ccc1ccccc12
A. inactive

Q. Moving on to the next compound: SC1CCCCC1
A. inactive

----------
target: Nuclear receptor subfamily 1 group I member 3 (Homo sapiens); assay: qHTS assay to identify small molecule antagonists of the constitutive androstane receptor (CAR) signaling pathway (AID 1224838); conditions: HepG2-CYP2B6-hCAR luciferase, CITCO-stimulated, 24 h; series mostly up to 92.4 µM;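 further: HepG2 cells stably expressing hCAR with CYP2B6 luciferase reporter stimulated by CITCO; nearly all actives have a fitted effect of over 40% in size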
Records with an inconclusive call do not appear. Calls of active or inactive are those of the source. Calls follow the shape of the dose curve; as a rule, active = well fitted inhibition curve with a large enough effect in the repeat runs; inconclusive = weak or mixed curves, or effect the other way; inactive = no such curve, though single readings can be large or run the other way.
Return exactly one item of yes (1) (active), no (0) (inactive)

Solved cases below.
CC(CC(C)(C)C)CC(C)(C)CC(C)(C)C (stereo unspecified) ... no (0)
Oc1ccc(C2(c3ccc(O)c(C4CCCCC4)c3)CCCCC2)cc1C1CCCCC1 ... yes (1)
c1ccc(-c2ccccc2-c2ccccc2)cc1 ... no (0)
CN1CC[C@H](c2c(O)cc(O)c3c(=O)cc(-c4ccccc4Cl)oc23)[C@H](O)C1 ... yes (1)
O=S(=O)(c1ccc(OCc2ccccc2)cc1)c1ccccc1O ... no (0)

Q. Please state the recorded outcome for this compound: CCC1(C)C(=O)N(Cl)C(=O)N1Cl (stereo unspecified)
A. no (0)

Q. And for [Cl][Sc]([Cl])[Cl] ?
A. no (0)

Q. And what about the compound O=C1c2ccccc2C(=O)c2c(Cl)cccc21 ?
A. no (0)

Q. // next record C=C1CC[C@H]2O[C@]2(C)CC[C@@H]2[C@@H]1CC2(C)C
A. no (0)

----------
test: qHTS assay to identify small molecule antagonists of the retinoid-related orphan receptor gamma (ROR-gamma) signaling pathway - cell viability counter screen (AID 1159520); details: Tet-on RORgamma CHO cells viability, ATP luminescence, 16 h; series mostly up to 92.4 µM; further: nearly all actives have a fitted effect of over 50% in size
Results filed as inconclusive are left out. The source made the active and inactive calls. Calls follow the shape of the dose curve; as a rule, active = well fitted cell-killing curve with a large enough effect in the repeat runs; inconclusive = weak or mixed curves, or effect the other way; inactive = no such curve, though single readings can be large or run the other way.
Hi! Could you answer with just one of these? Yes (active), No (inactive)

Field: example entries. Status: answers known.
Cc1ccc2nc(-c3ccc(N)cc3)sc2c1S(=O)(=O)O ... No
Oc1ccc2c(c1)CCC2 ... No
Cn1ccnc1 ... No

Q. For O=C1CCC(=O)N1 , which call appears in the assay record?
A. No

Q. Subsequent entry: C=COCCCC
A. No

Q. What about this compound? C1=CCCC1
A. No

Q. Item: O=C(CCN1CCC(c2ccccc2)C1)c1ccc2c(c1)OCCO2 (configuration not stated)
A. Yes
